Cited source for all entries: patent US20030176477A1

The following compounds are shown together with reported melting point values.

Example cases with answers are listed next.
{"compound": "O=C(NCSc1ccc(Cl)cc1)c1snc(Cl)c1Cl [compound 65]", "melting point": "106 to 107 °C"}
{"compound": "O=C(NC(O)C(F)(F)F)c1snc(Cl)c1Cl (stereo not drawn) [compound 48]", "melting point": "90 to 93 °C"}
{"compound": "N#C/C(=N\\c1ccc(C(F)(F)F)cc1)NC(=O)c1snc(Cl)c1Cl", "melting point": "151 to 153 °C"}
{"compound": "O=C(c1snc(Cl)c1Cl)n1[nH]c(-c2ccc(Cl)cc2)cc1=O [compound 288]", "melting point": "> 250 °C"}
{"compound": "CN(NC=C(C#N)c1ccccc1)C(=O)c1snc(Cl)c1Cl", "melting point": "130 to 139 °C"}

Value of melting point reported for the compound CN(C)/C=N/C(=O)c1snc(Cl)c1Cl [compound 290] is 196 to 197 °C
